Structures can show the parent of a compound that is named as a salt.
For each of the compounds below, state its IC50.

Note to self: IC50 of CC12CC3(C)CC(C)(C1)CC(Cc1nnc4n1CCCCC4)(C2)C3 [Compound 7, Trifluoroacetate Salt] with 11β-HSD2 (hHSD2) (Homo sapiens, UniProt P80365) was > 1000 nM

Note to self: IC50 of COc1cc(-c2nnc(C34CC5CC(CC(C5)C3)C4)n2C)cc(OC)c1OC with 11β-HSD2 (hHSD2) (Homo sapiens, UniProt P80365) was < 10 nM

Note to self: IC50 of C1CCCCc2nnc(C34CC5CC(CC(C5)C3)C4)n2CCCC1 with 11β-HSD2 (hHSD2) (Homo sapiens, UniProt P80365) was > 1000 nM

----------
assaySystem: recombinant human CB2 receptor (Homo sapiens, UniProt P34972)
Construct: expressed in transfected cells; host or cells: CHO cells (membranes)
Sequence (P34972 whole entry): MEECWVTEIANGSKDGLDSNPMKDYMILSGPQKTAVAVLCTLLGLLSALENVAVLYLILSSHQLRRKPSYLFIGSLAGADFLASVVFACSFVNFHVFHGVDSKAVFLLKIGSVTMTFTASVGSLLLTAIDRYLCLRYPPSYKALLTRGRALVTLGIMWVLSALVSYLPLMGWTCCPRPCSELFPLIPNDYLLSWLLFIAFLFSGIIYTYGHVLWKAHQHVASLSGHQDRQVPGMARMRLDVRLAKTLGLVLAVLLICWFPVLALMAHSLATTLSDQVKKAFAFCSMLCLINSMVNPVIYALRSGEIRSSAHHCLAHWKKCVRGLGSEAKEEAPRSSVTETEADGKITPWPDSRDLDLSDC
testDetails: CB2 Receptor Binding Assay
measurementConditions: CHO cells; read-out: hCB2 IC50
pIC50: −log10 of the molar value.
For each of the compounds below, state its pIC50.

pIC50 reported for this compound Cn1c(C(=O)NN2CCCCC2)nc(-c2ccc(Cl)cc2Cl)c1-c1ccc(Cl)cc1 : 6.00 to 7.00

pIC50 reported for this compound Cc1ccc(-c2nc(C(=O)NN3CCCCC3)n(C)c2-c2ccc(C)cc2)cc1 : < 6.00

pIC50 reported for this compound Cn1c(C(=O)Nc2ccccc2)nc(-c2ccc(Cl)cc2Cl)c1-c1ccc(Cl)cc1 : 6.00 to 7.00

pIC50 reported for this compound Cc1ccc(-c2nc(C(=O)NC3CCCCC3)n(C)c2-c2ccc(C)cc2)cc1 : < 6.00

----------
assaySystem: recombinant human CB2 receptor (Homo sapiens, UniProt P34972)
Construct: expressed in transfected cells; host or cells: CHO cells (membranes)
testDetails: CB2 Receptor Binding Assay
experimentalReadout: IC50

IC50 reported for this compound Cn1c(C(=O)NC2CCCCC2)nc(-c2ccc(Cl)cc2Cl)c1-c1ccc(Cl)cc1 : 100 to 1000 nM

----------
For each of the compounds below, state its IC50.
assaySystem: recombinant human CB1 receptor (Homo sapiens)
Construct: expressed in transfected cells; host or cells: CHO cells (membranes)
Sequence (P21554 whole entry): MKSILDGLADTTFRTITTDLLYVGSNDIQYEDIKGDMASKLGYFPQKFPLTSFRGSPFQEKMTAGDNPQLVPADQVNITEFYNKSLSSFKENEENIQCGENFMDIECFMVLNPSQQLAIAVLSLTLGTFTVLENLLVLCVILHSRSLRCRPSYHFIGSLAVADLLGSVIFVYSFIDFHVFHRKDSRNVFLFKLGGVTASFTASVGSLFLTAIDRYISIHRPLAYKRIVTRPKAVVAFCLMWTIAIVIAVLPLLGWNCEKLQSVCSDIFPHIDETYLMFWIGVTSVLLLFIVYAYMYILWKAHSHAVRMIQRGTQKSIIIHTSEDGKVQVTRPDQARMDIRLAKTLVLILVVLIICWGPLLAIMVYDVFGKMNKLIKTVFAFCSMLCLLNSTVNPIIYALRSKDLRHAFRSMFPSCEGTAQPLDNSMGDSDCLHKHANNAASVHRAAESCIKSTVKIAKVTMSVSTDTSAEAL
testDetails: Cannabinoid Receptor-1 (CB1) Binding Assay
measurementConditions: CHO cell membranes, [3H]CP-55940 0.6 nM; read-out: hCB1 IC50

IC50 reported for this compound Cn1c(C(=O)NN2CCCCC2)nc(-c2ccc(Cl)cc2Cl)c1-c1ccc(Cl)cc1 : < 10 nM

IC50 reported for this compound Cn1c(C(=O)Nc2ccccc2)nc(-c2ccc(Cl)cc2Cl)c1-c1ccc(Cl)cc1 : 10 to 100 nM

----------
For each of the molecules below, state its Ion Channel Values K.
assaySystem: Potassium channel (Ikr) (Homo sapiens, UniProt Q12809)
Sequence (Q12809 whole entry): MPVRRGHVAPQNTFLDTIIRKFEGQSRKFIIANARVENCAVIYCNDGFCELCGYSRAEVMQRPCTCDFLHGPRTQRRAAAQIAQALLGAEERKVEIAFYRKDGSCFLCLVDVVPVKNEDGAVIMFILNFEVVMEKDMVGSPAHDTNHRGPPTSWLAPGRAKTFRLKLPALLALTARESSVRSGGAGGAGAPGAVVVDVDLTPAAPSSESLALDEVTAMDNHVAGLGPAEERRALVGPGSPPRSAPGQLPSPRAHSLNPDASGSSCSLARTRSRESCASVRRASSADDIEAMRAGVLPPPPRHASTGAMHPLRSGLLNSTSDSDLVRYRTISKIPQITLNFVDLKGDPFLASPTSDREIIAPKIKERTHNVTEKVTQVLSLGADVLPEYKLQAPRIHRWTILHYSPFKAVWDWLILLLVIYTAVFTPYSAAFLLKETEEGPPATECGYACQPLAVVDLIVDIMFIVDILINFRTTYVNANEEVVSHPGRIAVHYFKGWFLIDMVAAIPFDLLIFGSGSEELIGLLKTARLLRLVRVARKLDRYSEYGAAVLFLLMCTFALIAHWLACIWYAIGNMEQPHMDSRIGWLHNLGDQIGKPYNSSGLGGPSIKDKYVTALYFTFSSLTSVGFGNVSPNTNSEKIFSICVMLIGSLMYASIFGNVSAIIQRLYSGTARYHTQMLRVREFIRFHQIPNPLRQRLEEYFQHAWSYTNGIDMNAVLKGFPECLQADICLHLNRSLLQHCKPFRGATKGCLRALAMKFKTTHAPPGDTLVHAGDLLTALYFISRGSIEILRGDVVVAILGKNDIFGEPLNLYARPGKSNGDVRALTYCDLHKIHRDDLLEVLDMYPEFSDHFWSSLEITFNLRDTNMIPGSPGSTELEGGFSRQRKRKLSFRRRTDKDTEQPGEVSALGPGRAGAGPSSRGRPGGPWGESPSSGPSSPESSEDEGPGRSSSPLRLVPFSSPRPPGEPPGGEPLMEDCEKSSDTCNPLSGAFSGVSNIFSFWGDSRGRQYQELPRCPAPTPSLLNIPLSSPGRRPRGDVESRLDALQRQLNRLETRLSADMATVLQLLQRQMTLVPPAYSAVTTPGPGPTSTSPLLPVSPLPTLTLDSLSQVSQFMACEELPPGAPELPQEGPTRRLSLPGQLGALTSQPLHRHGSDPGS
testDetails: Potassium channel (Ikr) binding
Write the number in µM without appending the unit.

Note to self: Ion Channel Values K of Cn1c(C(=O)NC2CCCCC2)nc(-c2ccc(Cl)cc2Cl)c1-c1ccc(Cl)cc1 with Potassium channel (Ikr) (Homo sapiens, UniProt Q12809) was 5.6

Note to self: Ion Channel Values K of Cn1c(C(=O)NN2CCCCC2)nc(-c2ccc(Cl)cc2Cl)c1-c1ccc(Cl)cc1 with Potassium channel (Ikr) (Homo sapiens, UniProt Q12809) was 1.3
